The measurements presented in this section are drawn from patent US20190241671A1.

measured_target: T1, CD19 antigen on Daudi lymphoma cells (human, UniProt P15391 20-556)
T1 construct: whole, on cells; also called Daudi cells
T1 sequence (looked up): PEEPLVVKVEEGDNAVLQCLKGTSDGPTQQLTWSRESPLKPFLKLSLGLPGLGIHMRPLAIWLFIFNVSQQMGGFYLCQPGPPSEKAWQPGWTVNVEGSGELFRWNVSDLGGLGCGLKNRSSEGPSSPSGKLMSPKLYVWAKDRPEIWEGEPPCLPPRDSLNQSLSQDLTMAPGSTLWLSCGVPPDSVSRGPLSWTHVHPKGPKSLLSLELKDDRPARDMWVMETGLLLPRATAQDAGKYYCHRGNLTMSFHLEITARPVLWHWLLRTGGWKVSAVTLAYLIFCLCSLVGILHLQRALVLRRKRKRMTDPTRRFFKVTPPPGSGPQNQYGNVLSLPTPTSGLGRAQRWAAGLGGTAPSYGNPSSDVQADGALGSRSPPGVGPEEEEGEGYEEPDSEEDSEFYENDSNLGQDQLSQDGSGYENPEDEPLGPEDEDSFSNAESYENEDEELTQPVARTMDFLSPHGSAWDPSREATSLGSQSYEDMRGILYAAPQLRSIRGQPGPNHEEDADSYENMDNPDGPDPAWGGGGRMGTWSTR
measurement_description: FACS competition on Daudi cells; unlabeled antibody 100 ng/ml (1x) vs competitor biotin-B4 VH0/VK0 100 ng/ml
Please go through the items and note down their % inhibition of labeled B4 binding.
Provide only the numeric value, understood in %.

Sure, the documented % inhibition of labeled B4 binding for B4 VH0/VK0 antibody (antibody, V domains shown, Expressed from pdHL12 as intact heavy and light chains; also called parental B4 antibody) VH: QVQLQQPGAEVVKPGASVRLSCKTSGYTFTSNWMHWVKQRPGQGLEWIGEIDPSDSYTNYNQKFKGKAKLTVDKSSSTAYMEVSSLTSEDSAVYYCARGSNPYYYAMDYWGQGTSVTVSS VL: QIVLTQSPAIMSASPGEKVTMTCSASSGVNYMHWYQQKPGTSPKRWIYDTSKLASGVPARFSGSGSGTSYSLTISSMEAEDAATYYCHQRGSYTFGGGTKLEIK is 28

Lookup result for B4 VHv4/VKv4 antibody (antibody, V domains shown) VH: QVQLEQPGAEVVKPGASVKVSCKTSGYTFTSNWMHWVKQTPGKGLEWIGEIDPSDSYTNYNQKFDGKAKLTVDKSSSTAYMEVSDLTAEDSATYYCARGSNPYYYAMDYWGQGTSVTVSS VL: QIVLTQSPATLSASPGEKATMTCSASSGVNYMHWYQQKPGTSPKRWIYDTDKTASGVPARFSGSGSGTSYSLTISSMEAEDAATYYCHQRGSYTFGGGTKLEIK ; measured % inhibition of labeled B4 binding: 16

Just so you know, measured % inhibition of labeled B4 binding for B4 VHv3/VKv3 antibody (antibody, V domains shown) VH: QVQLEQPGAEVKKPGASVKVSCKASGYTFTSNWMHWVKQRPGQGLEWIGEIDPSDSYTNYNQKFKGKAKLTVDKSSSTAYMEVSDLTAEDSAVYYCARGSNPYYYAMDYWGQGTSVTVSS VL: QIVLTQSPATLSASPGEKATMTCSASSGANYMHWYQQKPGTSPKRWIYDTSKLASGVPARFSGSGSGTSYSLTIESMEAEDAATYYCHQRGSYTFGGGTKLEIK came out at 20
